Origin of the recorded values: patent US11759508B2

target: HLA-A*0201 (Homo sapiens, UniProt P04439, D140Y/D185E/D98H/E176V/E277Q/G131W/G231S/I119V/I121R/I166T/I218V/L300P/L318F/N151K/N90K/P208A/P217A/Q86G/Q94H/R138H/R169H/T345S); construct: human tumoral cell T2 which expresses the HLA-A*0201 molecule; endogenous in cells; host or cells: T2 cells (human, TAP1/2 negative); experiment: Affinity of the peptide to T2 cell line (HLA-A*0201 expression, FACS, relative to HIV pol 589-597); type: binding; settings: T2 cells, peptide 100-0.1 μM, 16 h, 37° C., anti-HLA-A2 FACS
Parameter Concentration of peptide that induces 20% of HLA-A2 expression: see the listing below.

{"columns": ["SUBSTANCE", "READING"],
 "data": [
  ["GLAFVPLQI (listed as Homo sapiens) [CD37-H1, reference compound]", "7.35 µM"],
  ["LLVGILHLV [CD19-B1]", "3.7 µM"],
  ["YIFEHPELL (YIFEHPETA) [CD22-B1]", "0.16 µM"],
  ["FMPGLLFGA [TNFRSF13C-B33]", "13.20 µM"],
  ["GMAFVPLLL [CD37-B11]", "2.30 µM"],
  ["YILGGLLMV [MS4A1-B12]", "31.20 µM"],
  ["TLAYLIFCL (listed as Homo sapiens) [CD19-H6, reference compound]", "4.98 µM"],
  ["TLLFLTPML [CD19-B2]", "0.38 µM"],
  ["SLVGILHII [CD19-B11]", "5.97 µM"],
  ["FLAFVPLQL [CD37-B1]", "0.65 µM"]
]}

Recall and state the measured Concentration of peptide that induces 20% of HLA-A2 expression for WVFEHPETL (listed as Homo sapiens) [CD22-H1, reference compound] .
1.97 µM

Recall and state the measured Concentration of peptide that induces 20% of HLA-A2 expression for MS4A1-B41 (ILNSLSLLL) .
2.45 µM

Recall and state the measured Concentration of peptide that induces 20% of HLA-A2 expression for YLAYLIFEL [CD19-B6] .
3.76 µM
